Test system: NCI-H1299
assay.details: Antiproliferative activity against SMARCA4-deficient human NCI-H1299 cells assessed as cell growth inhibition measured after 7 days by WST-8 assay
Assay type: functional
conditions: NCI-H1299, 168 h, time 7 day
parameter.measured: GI50 (nM)

Cc1ncsc1-c1ccc([C@H](C)NC(=O)[C@@H]2C[C@@H](O)CN2C(=O)[C@@H](NC(=O)CCCCCCCCCn2cc(-c3cc(-c4ccccc4O)nnc3N)cn2)C(C)(C)C)cc1 | 100

a = Cc1ncsc1-c1ccc([C@H](C)NC(=O)[C@@H]2C[C@@H](O)CN2C(=O)[C@@H](c2cc(N3CCC(CN4CCC(O[C@H]5C[C@H](Oc6cccc(CN7C8CCC7CN(c7cc(-c9ccccc9O)nnc7N)C8)c6)C5)CC4)CC3)no2)C(C)C)cc1
b = Cc1ncsc1-c1ccc([C@H](CC[C@H](C)CCN2CCC(c3ccc4c(c3)n(C3CCCC3)c3nc(=O)c5c(Br)cccc5n43)CC2)NC(=O)[C@@H]2C[C@@H](O)CN2C(=O)[C@@H](NC(=O)C2(F)CC2)C(C)(C)C)cc1
## Task I'm curious whether a or b has the smaller GI50 number. Which is it? Reply with the label of the item you choose.
## Result a
(a: 31 nM, b: 116 nM)

====

System: A549
assay.details: Antiproliferative activity against SMARCA4-deficient human A549 cells assessed as cell growth inhibition measured after 7 days by WST-8 assay
Format: functional
conditions: A549, 168 h, time 7 day
parameter.measured: GI50 (nM)

Cc1ncsc1-c1ccc([C@H](CC[C@H](C)CCN2CCC(c3ccc4c(c3)n(C3CCCC3)c3nc(=O)c5c(Br)cccc5n43)CC2)NC(=O)[C@@H]2C[C@@H](O)CN2C(=O)[C@@H](NC(=O)C2(F)CC2)C(C)(C)C)cc1 | 30

A = Cc1ncsc1-c1ccc([C@H](C)NC(=O)[C@@H]2C[C@@H](O)CN2C(=O)[C@@H](c2cc(N3CCC(CN4CCC(O[C@H]5C[C@H](Oc6cccc(CN7C8CCC7CN(c7cc(-c9ccccc9O)nnc7N)C8)c6)C5)CC4)CC3)no2)C(C)C)cc1
B = Cc1ncsc1-c1ccc([C@H](C)NC(=O)[C@@H]2C[C@@H](O)CN2C(=O)[C@@H](NC(=O)CCCCCCCCCn2cc(-c3cc(-c4ccccc4O)nnc3N)cn2)C(C)(C)C)cc1
C = Cc1ncsc1-c1ccc([C@H](C)NC(=O)[C@@H]2C[C@@H](O)CN2C(=O)[C@@H](NC(=O)[C@H]2CC[C@H](CN3CC4(CCC(n5cc(-c6cc(-c7ccccc7O)nnc6N)cn5)CC4)C3)CC2)C(C)(C)C)cc1
## Task Ascending sort, GI50. Output spec: a listing of the labels in the requested order.
## Result A, B, C
(A: 3.3 nM, B: 16 nM, C: 42 nM)

====

assay.system: von Hippel-Lindau disease tumor suppressor/SWI/SNF-related matrix-associated actin-dependent regulator of chromatin subfamily A member 2 (Homo sapiens, UniProt P51531+P40337)
Sequence (P51531 whole entry, the tested form may be a part): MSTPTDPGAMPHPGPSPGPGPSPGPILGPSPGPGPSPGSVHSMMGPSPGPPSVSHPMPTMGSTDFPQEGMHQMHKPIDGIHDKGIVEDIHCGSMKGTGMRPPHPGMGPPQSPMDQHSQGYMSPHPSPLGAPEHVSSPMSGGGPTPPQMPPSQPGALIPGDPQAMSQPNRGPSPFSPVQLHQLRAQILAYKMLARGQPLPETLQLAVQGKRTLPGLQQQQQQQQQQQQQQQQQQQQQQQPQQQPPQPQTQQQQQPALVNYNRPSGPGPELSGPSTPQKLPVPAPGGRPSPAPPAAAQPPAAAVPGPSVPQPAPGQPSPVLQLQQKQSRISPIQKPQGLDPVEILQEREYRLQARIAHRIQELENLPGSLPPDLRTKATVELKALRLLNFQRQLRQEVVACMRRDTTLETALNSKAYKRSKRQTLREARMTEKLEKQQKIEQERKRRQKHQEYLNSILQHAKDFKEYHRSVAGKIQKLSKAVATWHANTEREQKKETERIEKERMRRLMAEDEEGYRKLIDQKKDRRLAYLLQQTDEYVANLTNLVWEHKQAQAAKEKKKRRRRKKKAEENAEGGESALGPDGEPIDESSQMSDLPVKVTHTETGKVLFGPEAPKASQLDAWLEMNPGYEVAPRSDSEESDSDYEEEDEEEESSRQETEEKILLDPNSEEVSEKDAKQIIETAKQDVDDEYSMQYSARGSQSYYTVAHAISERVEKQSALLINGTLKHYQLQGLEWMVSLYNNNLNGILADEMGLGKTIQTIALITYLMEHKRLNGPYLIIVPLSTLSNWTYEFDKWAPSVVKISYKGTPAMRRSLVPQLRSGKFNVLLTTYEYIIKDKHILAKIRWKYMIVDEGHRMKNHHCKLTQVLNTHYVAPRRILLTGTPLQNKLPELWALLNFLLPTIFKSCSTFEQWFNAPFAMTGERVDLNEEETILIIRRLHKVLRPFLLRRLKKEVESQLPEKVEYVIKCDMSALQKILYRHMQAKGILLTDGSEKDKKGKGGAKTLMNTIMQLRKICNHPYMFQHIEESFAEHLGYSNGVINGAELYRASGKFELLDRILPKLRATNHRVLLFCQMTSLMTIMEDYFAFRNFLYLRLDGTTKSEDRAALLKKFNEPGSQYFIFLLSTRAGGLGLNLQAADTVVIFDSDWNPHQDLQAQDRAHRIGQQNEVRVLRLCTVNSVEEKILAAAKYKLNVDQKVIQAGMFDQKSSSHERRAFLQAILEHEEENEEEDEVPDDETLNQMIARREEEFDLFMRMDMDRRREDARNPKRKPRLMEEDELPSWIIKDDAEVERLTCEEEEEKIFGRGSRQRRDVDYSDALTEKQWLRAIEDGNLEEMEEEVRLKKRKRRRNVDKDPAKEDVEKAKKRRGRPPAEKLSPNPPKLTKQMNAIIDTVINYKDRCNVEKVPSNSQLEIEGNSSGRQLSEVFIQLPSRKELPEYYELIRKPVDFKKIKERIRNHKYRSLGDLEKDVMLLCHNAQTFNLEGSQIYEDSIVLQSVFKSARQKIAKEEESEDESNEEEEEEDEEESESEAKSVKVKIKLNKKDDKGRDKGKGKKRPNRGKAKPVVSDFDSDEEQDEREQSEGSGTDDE
Sequence (P40337 whole entry, the tested form may be a part): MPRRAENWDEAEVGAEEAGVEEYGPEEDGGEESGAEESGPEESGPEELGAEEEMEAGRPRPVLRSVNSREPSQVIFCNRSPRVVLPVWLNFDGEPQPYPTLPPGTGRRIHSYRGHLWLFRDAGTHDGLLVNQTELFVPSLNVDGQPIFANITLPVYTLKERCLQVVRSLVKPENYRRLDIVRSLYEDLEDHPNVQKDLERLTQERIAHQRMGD
assay.details: PROTAC activity at VHL/C-terminal HiBiT fused SMARCA2 in human HeLa cells assessed as induction of SMARCA2 degradation incubated for 24 hrs by Nano-Glo HiBiT analysis
Type: cell-based
parameter.measured: DC50 (nM)

# example entries with known answers
Cc1ncsc1-c1ccc([C@H](C)NC(=O)[C@@H]2C[C@@H](O)CN2C(=O)[C@@H](NC(=O)CCCCCN2CCC(n3cc(-c4cc(-c5ccccc5O)nnc4N)cn3)CC2)C(C)(C)C)cc1 | 6
Cc1cc([C@H](C(=O)N2C[C@H](O)C[C@H]2C(=O)N[C@@H](CC(=O)NCCCCCCCCn2cc(-c3cc(-c4ccccc4O)nnc3N)cn2)c2ccc(-c3scnc3C)cc2)C(C)C)on1 | 67

a = Cc1cc([C@H](C(=O)N2C[C@H](O)C[C@H]2C(=O)N[C@@H](CC(=O)NCCCCCCCCCCCCn2cc(-c3cc(-c4ccccc4O)nnc3N)cn2)c2ccc(-c3scnc3C)cc2)C(C)C)on1
b = Cc1ncsc1-c1ccc([C@H](C)NC(=O)[C@@H]2C[C@@H](O)CN2C(=O)[C@@H](NC(=O)CCN2CCN(CCCn3cc(-c4cc(-c5ccccc5O)nnc4N)cn3)CC2)C(C)C)cc1
c = Cc1ncsc1-c1ccc([C@H](C)NC(=O)[C@@H]2C[C@@H](O)CN2C(=O)[C@@H](NC(=O)CCCCCn2cc(-c3cc(-c4ccccc4O)nnc3N)cn2)C(C)(C)C)cc1
## Task Sort by DC50, descending. Output spec: a listing of the labels in the requested order.
## Result b, a, c

All values here come from ChEMBL document CHEMBL5325488.
